molecular target: KRAS G12C (Homo sapiens, UniProt P01116, G12C); test: GDP-GTP exchange assay (KRAS_G12C exchange); settings: bodipy-GDP loaded KRAS G12C 2.5 nM, SOS1 150 nM, GppNHp; 2 hours pre-incubation, 2 hours reaction; read-out: G12C_exchange
Sequence (P01116 1-188 isoform P01116-2 G12C): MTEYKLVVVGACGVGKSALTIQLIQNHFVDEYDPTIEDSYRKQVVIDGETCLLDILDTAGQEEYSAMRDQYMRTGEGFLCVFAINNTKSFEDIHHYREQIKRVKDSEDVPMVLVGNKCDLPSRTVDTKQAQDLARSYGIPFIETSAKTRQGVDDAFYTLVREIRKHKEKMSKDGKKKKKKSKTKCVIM
pIC50: −log10 of the molar value.
Measured pIC50 by item

Molecule	pIC50
CC#CC(=O)N1CC[C@H](n2nnc3c(N4CC(N(C)C)C4)nc4c(F)c(-c5c(C)c(Cl)cc6[nH]ncc56)c(CCC#N)cc4c32)C[C@H]1CC#N (single isomer, unassigned) [Example 231a]	≥ 7.00

The reported value for `C=CC(=O)N1CC[C@H](n2nnc3c(N4CC(N(C)C)C4)nc4cc(-c5cccc(Cl)c5C)c(C)cc4c32)C[C@H]1CC#N` in terms of pIC50 is ≥ 7.00

The reported value for Cc1cc2c(nc(OC[C@@H]3CCCN3C)c3nnn([C@H]4CCN(C(=O)/C=C/CN(C)C)[C@H](CC#N)C4)c32)c(F)c1-c1ccccc1C(F)(F)F [Example 158a] in terms of pIC50 is ≥ 7.00
